Sourced from the supplement of paper PMC10646978

Record form. Attribute: NF-kB reporter. Fill in for each entry.
# Tested on: RAW-Dual (murine macrophage reporter line)
# TEST METHOD NOTES: NF-kB reporter (SEAP) activity fold change vs agonist alone; higher = enhanced NF-kB activity
# CONDITION SUMMARY: modulator concentration 10 µM; agonist: LPS 0.1 ug/mL
No unit in the answer, only the number.

Find the recorded NF-kB reporter belonging to `Cc1c(C)n2c3c(=O)n(Cc4ccccc4F)c(=O)n(C)c3nc2n1CCCN1CCOCC1` and report it.
1.1

Dear colleague, I am looking for the recorded NF-kB reporter of the following compound: `O=C(Nc1cc(C(F)(F)F)cc(C(F)(F)F)c1)c1c(F)cccc1F`
1.07

Param item = `O=C(c1ccc(F)cc1)C1CCN(CCn2c(=O)[nH]c3ccccc3c2=O)CC1` ; retrieve measured NF-kB reporter.
0.956

Recorded NF-kB reporter for `O=C(Nc1cc(N2CCN(Cc3ccccc3)CC2)ncn1)c1ccc2ccccc2n1` , please?
0.984

Bench note: what NF-kB reporter did CN(Cc1cnc2nc(N)nc(N)c2n1)c1ccc(C(=O)NC(CCC(=O)O)C(=O)O)cc1 (stereo not given) show?
0.701

---

Record form. Attribute: NF-kB reporter. Fill in for each entry.
# Tested on: RAW-Dual (murine macrophage reporter line)
# TEST METHOD NOTES: NF-kB reporter (SEAP) activity fold change vs agonist alone; higher = enhanced NF-kB activity
# CONDITION SUMMARY: modulator concentration 10 µM; agonist: CpG ODN 1826 0.5 ug/mL
Lab note: record the figure alone, no unit after it.

Please provide the recorded NF-kB reporter for `CCCCC1=NC2(CCCC2)C(=O)N1Cc1ccc(-c2ccccc2-c2nn[nH]n2)cc1` , tested on RAW-Dual (murine macrophage reporter line).
1.05

Request: NF-kB reporter, test system RAW-Dual (murine macrophage reporter line), entry `COC(=O)/C=C/C(=O)OC`
1.2

Query for RAW-Dual (murine macrophage reporter line): what NF-kB reporter does the record show for `CC1(C)CC(=O)c2sc(NC(=O)c3ccccc3)nc2C1` ?
1.05

NF-kB reporter of `O=C(NCc1cccc(Cl)c1)c1cnc2n(c1=O)CCS2` on RAW-Dual (murine macrophage reporter line)?
1.03

Query for RAW-Dual (murine macrophage reporter line): what NF-kB reporter does the record show for `O=C(c1ccc(F)c(F)c1Nc1ccc(I)cc1F)N1CC(O)([C@@H]2CCCCN2)C1` ?
0.155

Give the reported NF-kB reporter for `COc1ccc(N(CC(=O)Nc2ccc3ccccc3c2)S(C)(=O)=O)cc1OC` (system: RAW-Dual (murine macrophage reporter line)).
0.921

Lab note: need NF-kB reporter for COc1ccccc1OCCNCC(O)COc1cccc2[nH]c3ccccc3c12 (stereo not drawn) on RAW-Dual (murine macrophage reporter line), anyone have it?
0.0926

Give the reported NF-kB reporter for `CC(=O)N1CCC(C(=O)NCc2cccnc2-c2cnn(C)c2)CC1` (system: RAW-Dual (murine macrophage reporter line)).
1.02

# returns recorded NF-kB reporter (system: RAW-Dual (murine macrophage reporter line)) for `O=C(Cn1cc(S(=O)(=O)c2ccc(F)cc2)c2ccccc21)N1CCCCCC1`
0.825

Form field: NF-kB reporter recorded for `CC(=NNC(N)=S)C1=CC(C)(C)CCC1` with RAW-Dual (murine macrophage reporter line) (enter value)
0.744

Lookup: NF-kB reporter / RAW-Dual (murine macrophage reporter line) / `COc1ccc(S(=O)(=O)NCCn2nc(C(F)(F)F)cc2C2CC2)cc1`
0.935

Kindly state the measured NF-kB reporter obtained for `O=C(Nc1cccnc1)c1ccc(OC2CCOCC2)nc1` with RAW-Dual (murine macrophage reporter line).
1.08

API: value(readout=NF-kB reporter, system=RAW-Dual (murine macrophage reporter line)) for record `CC(C)CN(C[C@@H](O)[C@H](Cc1ccccc1)NC(=O)O[C@H]1CO[C@H]2OCC[C@H]21)S(=O)(=O)c1ccc(N)cc1.CCO`
1.7

// lookup NF-kB reporter | system=RAW-Dual (murine macrophage reporter line) | key= `CCOc1ccc(C=c2sc3nc4ccccc4n3c2=O)cc1Cl`
1.07

Notebook entry, RAW-Dual (murine macrophage reporter line) assay: NF-kB reporter of `O=C1CN(C(=O)c2cc3ccccc3o2)c2ccccc2N1` = ?
1.1

Param readout= NF-kB reporter; system= RAW-Dual (murine macrophage reporter line); entry= NC(=O)c1ncn(C2OC(CO)C(O)C2O)n1 (stereo not drawn) ; returns value.
1.17

Item `COc1cccc(C=Nc2cccc([N+](=O)[O-])c2C)c1O` with RAW-Dual (murine macrophage reporter line) - NF-kB reporter?
0.661

Param readout= NF-kB reporter; system= RAW-Dual (murine macrophage reporter line); entry= `CC1=CC(=NS(=O)(=O)c2ccc(C)cc2)C=C(Cl)C1=O` ; returns value.
0.635

GET /values?readout=NF-kB reporter&system=RAW-Dual (murine macrophage reporter line)&item= `CN(CC(=O)O)c1nc2ccc(OC(F)(F)F)cc2s1`
0.821

Return NF-kB reporter measured with RAW-Dual (murine macrophage reporter line) given this compound: COc1ccc(OC)c(S(=O)(=O)NCC2CC(=O)N(c3ccc(Cl)cc3)C2)c1 (stereo not drawn)
0.857

Under RAW-Dual (murine macrophage reporter line): NF-kB reporter value of `C#Cc1cccc(Nc2ncnc3cc4c(cc23)OCCOCCOCCO4)c1` ?
0.937

Recall the recorded NF-kB reporter for `CS(=O)(=O)NCc1cccc(Oc2ccc(F)cc2)c1` with RAW-Dual (murine macrophage reporter line) and state it.
1.03

GET /values?readout=NF-kB reporter&system=RAW-Dual (murine macrophage reporter line)&item= `Nc1ncn([C@H]2C[C@H](O)[C@@H](CO)O2)c(=O)n1`
1.3

What value of NF-kB reporter on RAW-Dual (murine macrophage reporter line) does CCC(C(=O)N1CCN(CCn2ccnc2-c2ccccc2)CC1)c1ccccc1 (stereo not drawn) have?
0.982

Form field - read-out: NF-kB reporter; system: RAW-Dual (murine macrophage reporter line); submitted item: `COc1ccc(OC)c(-c2csc(NC(=O)C3CC3)n2)c1`
1.11

What reported NF-kB reporter corresponds to `CSc1nnc2c(n1)[nH]c1c(C)cccc12` on RAW-Dual (murine macrophage reporter line)?
1.01

Item `CCN(CC)c1ccc(C=NNC(=O)c2ccccc2)c(O)c1` with RAW-Dual (murine macrophage reporter line) - NF-kB reporter?
2.34

What reported NF-kB reporter corresponds to `O=C(Cn1cnc(-c2ccc(Cl)cc2)cc1=O)N1CCOCC1` on RAW-Dual (murine macrophage reporter line)?
1.07

For RAW-Dual (murine macrophage reporter line), provide NF-kB reporter of `Oc1cccc(C=Nc2ccc(N=Cc3cccc(O)c3O)cc2)c1O` please.
0.606

Field: NF-kB reporter (RAW-Dual (murine macrophage reporter line)). Entry: `C[C@]1(O)C[C@@H](c2nc(-c3ccc4ccc(-c5ccccc5)nc4c3)c3c(N)nccn32)C1`
0.797

Test system RAW-Dual (murine macrophage reporter line); read-out NF-kB reporter; what value for COc1cccc2c1C(=O)c1c(O)c3c(c(O)c1C2=O)C[C@@](O)(C(=O)CO)C[C@@H]3O[C@@H]1C[C@H](N)[C@@H](O)[C@H](C)O1 [Prestw-1752] ?
0.219

Entry `O=C(NCC#CCOc1cccc(C(F)(F)F)c1)Nc1c(F)cccc1F` , system RAW-Dual (murine macrophage reporter line): what NF-kB reporter was measured?
0.921

Could you share what NF-kB reporter was measured for Cc1ccc(CCC(=O)N2CC(N3C(=O)C4CC=CCC4C3=O)C2)cc1F (stereo not drawn) , tested on RAW-Dual (murine macrophage reporter line)?
0.728

Form field - read-out: NF-kB reporter; system: RAW-Dual (murine macrophage reporter line); submitted item: `Cc1ccc2[nH]c3nc(C)cc(C)c3c(=O)c2c1`
0.967

Recorded NF-kB reporter for CN1CCN(C2=Nc3ccccc3Oc3ccc(Cl)cc32)CC1 [Prestw-132] with RAW-Dual (murine macrophage reporter line), please?
1.08

Kindly state the measured NF-kB reporter obtained for COc1cccc2c1C(=O)c1c(O)c3c(c(O)c1C2=O)C[C@@](O)(C(C)=O)C[C@@H]3O[C@H]1C[C@H](N)[C@H](O)[C@H](C)O1 [Prestw-487] with RAW-Dual (murine macrophage reporter line).
0.0705

Requested read-out NF-kB reporter, target or system RAW-Dual (murine macrophage reporter line), entry `O=C(Nc1ccc(S(=O)(=O)N2CCOCC2)cc1)c1ccc(Br)s1`
1.14

// lookup NF-kB reporter | system=RAW-Dual (murine macrophage reporter line) | key= `COc1ccc(CC(=O)Nc2nc(CSCc3ccc(F)cc3)cs2)cc1`
0.968

So what NF-kB reporter did `Cc1[nH]c2ccccc2c1CCNCc1ccc(/C=C/C(=O)NO)cc1` get with RAW-Dual (murine macrophage reporter line)?
0.22

Notebook: pull reported NF-kB reporter for RAW-Dual (murine macrophage reporter line), entry `CCN(CC)C(=O)N1CCN(C)CC1.O=C(O)CC(O)(CC(=O)O)C(=O)O`
1.04

Record CC1C(C#N)=C(N)OC2=C1C(=O)CC(C)(C)C2 (stereo not drawn) : what is its NF-kB reporter with RAW-Dual (murine macrophage reporter line)?
1.01

Given the entry `Cc1nc(NC(=O)N2CCC[C@H]2C(N)=O)sc1-c1ccnc(C(C)(C)C(F)(F)F)c1` , what NF-kB reporter was observed with RAW-Dual (murine macrophage reporter line)?
0.626

Could you share what NF-kB reporter was measured for `CCC(=O)Nc1ccc(N2CCCCC2)c(Cl)c1` , tested on RAW-Dual (murine macrophage reporter line)?
1.1
